VALUE KIND: melting point

Consider the reported melting point for these molecules:
{"MOLECULE": "COc1cc2nccc(Oc3ccc(NS(=O)(=O)c4cn(C)cn4)c(F)c3)c2cc1OC [Example A32]", "melting point": "215 to 217 °C"}
{"MOLECULE": "COc1cc2nccc(Oc3ccc(NS(=O)(=O)c4cccc5cnccc45)cc3)c2cc1OC [Example A78]", "melting point": "229 to 231 °C"}
{"MOLECULE": "COc1cc2nccc(Oc3ccc(NS(=O)(=O)c4cc(Cl)cc(Cl)c4O)cc3OC)c2cc1OC [Example A156]", "melting point": "> 240 °C"}

molecule CCn1cc(S(=O)(=O)Nc2ccc(Oc3cc(C)nc4ccc(F)cc34)cc2)cn1 [Example B21] , melting point observed: 165 to 167 °C

Entry COc1cc2nccc(Oc3ccc(NS(=O)(=O)c4ccccc4C(F)(F)F)cc3)c2cc1OC , melting point reported as 224 to 227 °C

// melting point value for COc1cc2c(Oc3ccc(NS(=O)(=O)c4ccccc4OC(F)(F)F)cc3F)ccnc2cc1OCCCN1CCOCC1 [Example D40] : 183 to 184 °C

// sample COc1cc2nccc(Oc3ccc(NS(=O)(=O)c4cccc5ccccc45)cc3OC)c2cc1OC [Example A140] , its melting point was 124 to 126 °C

response.value for COc1ccc(S(=O)(=O)Nc2ccc(Oc3ccnc4cc(OC)c(OC)cc34)cc2)cc1Cl [Example A67] (field: melting point) = 226 to 227 °C

Note to self: melting point recorded for COc1cc2nccc(Oc3ccc(NS(=O)(=O)c4csc5ccccc45)cc3F)c2cc1OC [Example A108] was 191 to 193 °C

# melting point of CCn1cc(S(=O)(=O)Nc2ccc(Oc3ccnc4cc(OC)c(OC)cc34)cc2F)cn1 [Example A31] = 211 to 213 °C

###

VALUE KIND: melting point

The reported value for COc1cc2nccc(Oc3ccc(NS(=O)(=O)c4cccc(-c5ccccc5)c4)cc3OC)c2cc1OC in terms of melting point is 108 to 110 °C

Entry COc1cc2nccc(Oc3ccc(NS(=O)(=O)c4cccc5ccccc45)c(C)c3)c2cc1OC ; melting point = 233 to 235 °C

Lab note: COc1cc2nccc(Oc3ccc(NS(=O)(=O)c4ccc5c(c4)CC(=O)N5C)cc3F)c2cc1OC gave melting point of 163 to 165 °C

Given item COc1cc2c(Oc3ccc(NS(=O)(=O)c4ccccc4C(F)(F)F)c(C)c3)ccnc2cc1OCCN1CCOCC1 , the value recorded as its melting point is 127 to 130 °C

melting point for COc1cc2nccc(Oc3ccc(NS(=O)(=O)c4cccc(OC(F)F)c4)c(F)c3)c2cc1OC is 238 to 239 °C

Kindly note the recorded melting point for COc1cc2nccc(Oc3ccc(NS(=O)(=O)/C=C/c4ccccc4)c(F)c3)c2cc1OC , which is 224 to 225 °C

The reported value for COc1cc2nccc(Oc3ccc(NS(=O)(=O)c4sc(NC(C)=O)cc4C)c(F)c3)c2cc1OC in terms of melting point is 133 to 135 °C

Memo: COc1cc2nccc(Oc3ccc(NS(=O)(=O)c4ccc5c(c4)CC(=O)N5C)cc3)c2cc1OC , reported melting point: 119 to 122 °C

// melting point lookup, compound = COc1cc2nccc(Oc3ccc(NS(=O)(=O)c4cccc(-c5ncccn5)c4)c(C)c3)c2cc1OC , result: 103 to 105 °C

melting point reading for Cc1cc(Oc2ccc(NS(=O)(=O)c3cnc(C)[nH]3)cc2F)c2cccc(C(F)(F)F)c2n1 : 258 to 259 °C

Kindly note the recorded melting point for COc1cc2nccc(Oc3ccc(NS(=O)(=O)c4ccc(F)c(Cl)c4)c(F)c3)c2cc1OC , which is 208 to 210 °C

For reference, reported melting point for COc1cc2nccc(Oc3ccc(NS(=O)(=O)c4ccccc4C(F)(F)F)c(F)c3)c2cc1OC stands at 237 to 239 °C

melting point reading for COc1cc2nccc(Oc3ccc(NS(=O)(=O)c4cccc(F)c4C)c(F)c3)c2cc1OC : 204 to 206 °C

The recorded melting point for entry COc1cc2nccc(Oc3ccc(NS(=O)(=O)c4ccc(Br)c(Cl)c4)cc3OC)c2cc1OC equals 110 to 113 °C

melting point reading for COc1cc2nccc(Oc3ccc(NS(=O)(=O)c4cccc5cccnc45)c(F)c3)c2cc1OC : 255 to 257 °C

Input COc1cc2nccc(Oc3ccc(NS(=O)(=O)c4ccc(Cl)cc4F)cc3)c2cc1OC . Output melting point: 218 to 220 °C

// field: melting point; key: COc1cc2nccc(Oc3ccc(NS(=O)(=O)c4ccco4)c(F)c3)c2cc1OC ; value = 210 to 212 °C
